Reported values of binding signal for individual entries
# tested.system: T1, RBFOX1 RRM (Homo sapiens, UniProt Q9NWB1 109-208)
# T1 sequence: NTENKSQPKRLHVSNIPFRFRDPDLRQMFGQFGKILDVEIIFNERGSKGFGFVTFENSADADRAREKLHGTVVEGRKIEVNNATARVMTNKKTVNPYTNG
# assay.info: EMSA; HiTS-Eq, 1 nM pool, 10 min; buffer printed only for the single-RNA assays: 10 mM Tris pH 7.5, 150 mM NaCl, 3.4 mM EDTA, 0.001% NP-40, 30 C
# cond: tags: His6 N-terminal (pET28a); label: 5' 32P
In all, about 16,000 sequences were measured (“ka relative to ugcaugu”: median about 0.0091, highest 2% from about 0.032 on). Shown is part of a subset that was picked to be rich in the highest values.

Examples from the recorded data:
AAGCAUA (DNA:RNA) RNA: GGGAGACCGGAAUUCAGAUUGUCCAAGCAUAUUAAAUCCCGUCGUAGCCACCA DNA 1: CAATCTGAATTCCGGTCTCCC DNA 2: TGGTGGCTACGACGGGATT ... 0.00459 KA relative to UGCAUGU
UAGCAUA (DNA:RNA) RNA: GGGAGACCGGAAUUCAGAUUGUCCUAGCAUAUUAAAUCCCGUCGUAGCCACCA DNA 1: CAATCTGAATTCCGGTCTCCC DNA 2: TGGTGGCTACGACGGGATT ... 0.011 KA relative to UGCAUGU
UGGGGGC (DNA:RNA) RNA: GGGAGACCGGAAUUCAGAUUGUCCUGGGGGCUUAAAUCCCGUCGUAGCCACCA DNA 1: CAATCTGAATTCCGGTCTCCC DNA 2: TGGTGGCTACGACGGGATT ... 0.014 KA relative to UGCAUGU

Kindly consider the entry below.
// query Looking for the measured binding signal of AUUUUUA (DNA:RNA) RNA: GGGAGACCGGAAUUCAGAUUGUCCAUUUUUAUUAAAUCCCGUCGUAGCCACCA DNA 1: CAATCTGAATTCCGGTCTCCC DNA 2: TGGTGGCTACGACGGGATT , can you help?
// result 0.00169 KA relative to UGCAUGU
